Taken from patent US12195490B2.

- Test system: ACHN cell line
- protocol-description: drug screen of the SelleckChem kinase inhibitor library with and without 5 uM SU-329, Cell-Titer Glo after 5 days
- Assay type: cell-based
- conditions-used: kinase inhibitor at 200 nM with and without 5 uM SU329; ACHN cell line; 5 days; Cell-Titer Glo
Parameter: log2fc. Scope: all listed entries.

- compound: "Cc1[nH]nc2ccc(-c3cncc(OC[C@@H](N)Cc4ccccc4)c3)cc12"
  log2fc: "−0.6438"
- compound: "CNc1nc(-c2ccc3c(N)n[nH]c3c2)cc(N2C[C@@H](C(=O)NC3CCCCC3)CC[C@H]2C)n1"
  log2fc: "−1.111"
- compound: "N#CC[C@H](C1CCCC1)n1cc(-c2ncnc3[nH]ccc23)cn1"
  log2fc: "−0.1253"
- compound: "O=C(NC1CCNCC1)c1n[nH]cc1NC(=O)c1c(Cl)cccc1Cl"
  log2fc: "−1.085"
- compound: "CCN1CCN(C(=O)Cc2ccc(Nc3ncc(F)c(Nc4ccc(C(=O)Nc5ccccc5Cl)cc4)n3)cc2)CC1"
  log2fc: "−0.1962"
- compound: "COc1ccc2c(Oc3ccc(NC(=O)c4c(C)n(CC(C)(C)O)n(-c5ccccc5)c4=O)nc3)ccnc2c1"
  log2fc: 0.0395
- compound: "O=C(NC(NC(=S)Nc1ccc(F)c([N+](=O)[O-])c1)C(Cl)(Cl)Cl)C(c1ccccc1)c1ccccc1 (stereo not drawn)"
  log2fc: 0.1923
- compound: "Cc1ccc(F)c(NC(=O)Nc2ccc(-c3cccc4[nH]nc(N)c34)cc2)c1"
  log2fc: "−0.2483"
- compound: "COc1cc2nccc(Oc3ccc(NC(=O)Nc4cc(C)on4)c(Cl)c3)c2cc1OC"
  log2fc: 0.798
- compound: "CN(c1ncccc1CNc1nc(Nc2ccc3c(c2)CC(=O)N3)ncc1C(F)(F)F)S(C)(=O)=O [PF-00562271]"
  log2fc: 0.8274
- compound: "COc1ccc2cc(-c3nc(-c4ccc([S+](C)[O-])cc4)[nH]c3-c3ccncc3)ccc2c1 (stereo not drawn)"
  log2fc: "−0.08697"
- compound: "CCn1c2ccccc2c2cc(Nc3ccnc(NCCCN4CCOCC4)n3)ccc21"
  log2fc: 0.1156
- compound: "Cn1c(=O)c(F)c(Nc2ccc(I)cc2F)c2c(=O)n(C[C@@H](O)CO)cnc21 [TAK-733, reference compound]"
  log2fc: 0.08618
- compound: "Cc1cnc(-c2cnc(NCCNc3ccc(C#N)cn3)nc2-c2ccc(Cl)cc2Cl)[nH]1.Cl [CHIR-99021 (CT99021) HCl]"
  log2fc: 0.9577
- compound: "Cc1cnc(Nc2ccc(OCCN3CCCC3)cc2)nc1Nc1cccc(S(=O)(=O)NC(C)(C)C)c1 [Fedratinib (SAR302503, TG101348)]"
  log2fc: "−0.003444"

* * *

Consider the following compounds and their measured log2fc readings.
- Tested on: ACHN cell line
- protocol-description: drug screen of the SelleckChem kinase inhibitor library with and without 5 uM SU-329, Cell-Titer Glo after 5 days
- Type: cell-based
- conditions-used: kinase inhibitor at 200 nM with and without 5 uM SU329; ACHN cell line; 5 days; Cell-Titer Glo

- compound: "Cl.Cl.Clc1ccc(Nc2nnc(Cc3ccncc3)c3ccccc23)cc1 [Vatalanib (PTK787) 2HCl]"
  log2fc: "−0.4289"
- compound: "Cl.O=S(=O)(c1cccc2cnccc12)N1CCCNCC1 [Fasudil (HA-1077) HCl]"
  log2fc: 0.1457
- compound: "N#Cc1c(Oc2ccc(F)c(NC(=O)Cc3cccc(C(F)(F)F)c3)c2)ccc2nc(NC(=O)C3CC3)sc12"
  log2fc: 0.4732
- compound: "CNC(=O)c1c(F)cccc1Nc1nc(Nc2cc3c(cc2OC)CCN3C(=O)CN(C)C)nc2[nH]ccc12 [GSK1838705A]"
  log2fc: "−0.03081"
- compound: "C=CC(=O)Nc1cccc(Nc2nc(Nc3ccc(N4CCN(C(C)=O)CC4)cc3OC)ncc2C(F)(F)F)c1"
  log2fc: "−0.001899"
- compound: "CO[C@H]1C[C@@H]2CC[C@@H](C)[C@@](O)(O2)C(=O)C(=O)N2CCCC[C@H]2C(=O)O[C@H]([C@H](C)C[C@@H]2CC[C@H](n3cnnn3)[C@H](OC)C2)CC(=O)[C@H](C)/C=C(\\C)[C@@H](O)[C@@H](OC)C(=O)[C@H](C)C[C@H](C)/C=C/C=C/C=C/1C"
  log2fc: "−1.34"
